Species: Sus scrofa
Experiment: Inhibition of pig pancreas group 1B sPLA2 at 10 uM
I'd appreciate it if you could supply inhibition values for the items below.
Express your answer in %, writing the number without its unit.

// lookup inhibition for O=C1OC(O)C(c2cccc(-c3ccc4ccccc4c3)c2)=C1c1ccc2ccccc2c1 (stereo not given) 0

Please give the measured inhibition for this compound: O=C1OC(O)C(c2cccc(-c3ccc(Oc4ccccc4)cc3)c2)=C1c1cccc(-c2ccc(Oc3ccccc3)cc2)c1 (stereo not given) 10.2

I'd like to know its inhibition. The compound in question is O=C1OC(O)C(c2cccc(-c3csc4ccccc34)c2)=C1Br (stereo not given) 28.6

Any idea what inhibition was measured for O=C1OC(O)C(c2ccc(-c3ccc(-c4ccccc4)cc3)cc2)=C1Br (stereo not given) ? 0

Can you look up the measured inhibition of O=C1OC(O)C(c2cccc(-c3csc4ccccc34)c2)=C1c1cccc(-c2csc3ccccc23)c1 (stereo not given) for me? 8.3

Item under review: O=C1OC(O)C(c2cccc(-c3ccc(Oc4ccccc4)cc3)c2)=C1Br (stereo not given) . Reported inhibition? 0

Would you mind telling me what inhibition value was observed for O=C1OC(O)C(c2cccc(-c3ccc4ccccc4c3)c2)=C1Br (stereo not given) ? 0

// returns reported inhibition for input CCCCc1ccc(C2=C(c3ccc(-c4ccc(CCCC)cc4)cc3)C(O)OC2=O)cc1 (stereo not given) 0

Find the recorded inhibition belonging to CCCCc1ccc(-c2ccc(C3=C(Br)C(=O)OC3O)cc2)cc1 (stereo not given) and report it. 0

Bench note: what inhibition did CCc1c(CC(N)=O)c2cc(OCCCP(=O)(O)O)ccc2n1Cc1ccccc1 show? 36.9

* * *

Target: Phospholipase A2, membrane associated (Homo sapiens) (UniProt P14555)
Sequence (P14555 whole entry): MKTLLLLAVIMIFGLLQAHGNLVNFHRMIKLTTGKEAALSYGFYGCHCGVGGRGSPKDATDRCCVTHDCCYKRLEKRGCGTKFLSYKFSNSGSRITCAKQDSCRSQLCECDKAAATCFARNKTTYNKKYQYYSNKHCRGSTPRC
Assay: Inhibition of human synovial recombinant group 2A sPLA2 at 10 uM
parameterMeasured: inhibition (%)
Only the number, expressed in %, is required.

Sample O=C1OC(O)C(c2cccc(-c3csc4ccccc34)c2)=C1c1cccc(-c2csc3ccccc23)c1 (stereo not given) — what was its inhibition? 2.4

Request the reported inhibition associated with CCCCc1ccc(C2=C(c3ccc(-c4ccc(CCCC)cc4)cc3)C(O)OC2=O)cc1 (stereo not given) 4.4

Please look up its inhibition: O=C1OC(O)C(c2ccc(-c3ccc(-c4ccccc4)cc3)cc2)=C1Br (stereo not given) 12.1

Suppose we examine the compound O=C1OC(O)C(c2cccc(-c3ccc(Oc4ccccc4)cc3)c2)=C1c1cccc(-c2ccc(Oc3ccccc3)cc2)c1 (stereo not given) ; what inhibition value has been reported? 10.6

// returns reported inhibition for input CCCCc1ccc(-c2ccc(C3=C(Br)C(=O)OC3O)cc2)cc1 (stereo not given) 0

Looking for the measured inhibition of O=C1OC(O)C(c2cccc(-c3csc4ccccc34)c2)=C1Br (stereo not given) , can you help? 30

I would be grateful if you could share the reported inhibition for CCc1c(CC(N)=O)c2cc(OCCCP(=O)(O)O)ccc2n1Cc1ccccc1 . 96.3

What does the record list as inhibition for O=C1OC(O)C(c2cccc(-c3ccc(Oc4ccccc4)cc3)c2)=C1Br (stereo not given) ? 2.4

Query (compound): O=C1OC(O)C(c2cccc(-c3ccc4ccccc4c3)c2)=C1c1ccc2ccccc2c1 (stereo not given) ; field requested: inhibition 14.8

Record request: inhibition value, item O=C1OC(O)C(c2cccc(-c3ccc4ccccc4c3)c2)=C1Br (stereo not given) 0

* * *

Tested on: Apis mellifera
Test: Inhibition of bee venom group 3 sPLA2 at 10 uM
parameterMeasured: inhibition (%)
Reply numerically in %, unit not repeated.

Quick check: inhibition of O=C1OC(O)C(c2cccc(-c3csc4ccccc34)c2)=C1Br (stereo not drawn) ? 13.9

Quick check: inhibition of CCc1c(CC(N)=O)c2cc(OCCCP(=O)(O)O)ccc2n1Cc1ccccc1 ? 2.4

Which inhibition value is on record for O=C1OC(O)C(c2cccc(-c3csc4ccccc34)c2)=C1c1cccc(-c2csc3ccccc23)c1 (stereo not drawn) ? 4
